- assayed-system: Aldo-keto reductase family 1 member B1 (Rattus norvegicus)
- protocol-text: Inhibition of ALR2 in rat erythrocytes assessed as reduction in sorbitol accumulation incubated for 3 hrs in presence of 28 mM glucose by gas chromatographic analysis relative to control
- Format: cell-based
assay-readout: inhibition

Known inhibition results, listed for orientation:
>  <compound>
COc1ccc(S(=O)(=O)N2C(=O)NC(=O)C23CCCc2ccccc23)cc1 (stereo unspecified)

>  <inhibition>
Dose-dependent effect

$$$$
>  <compound>
O=C1NC2(CCCc3ccccc32)C(=O)N1S(=O)(=O)c1ccc(F)cc1 (stereo unspecified)

>  <inhibition>
Dose-dependent effect

$$$$
>  <compound>
O=C1NC(=O)C2(CCCc3ccccc32)N1S(=O)(=O)c1ccc(Br)cc1 (stereo unspecified)

>  <inhibition>
Dose-dependent effect

$$$$
>  <compound>
O=C1NC(=O)C2(CCCc3ccccc32)N1S(=O)(=O)c1ccc(Cl)cc1 (stereo unspecified)

>  <inhibition>
Dose-dependent effect

$$$$
>  <compound>
O=C1NC2(CCCc3ccccc32)C(=O)N1S(=O)(=O)c1ccc(Cl)cc1 (stereo unspecified)

>  <inhibition>
Dose-dependent effect

$$$$

Then this compound:
Data request: Specify measured inhibition for Cc1ccc(S(=O)(=O)N2C(=O)NC3(CCCc4ccccc43)C2=O)cc1 (stereo unspecified) .
Data returned: Dose-dependent effect

---

Can you tell me pIC50 for the items I'm about to list?
- assayed-system: UniProt:P07943
- protocol-text: Inhibition of ALR2 in rat sciatic nerve assessed as reduction in sorbitol accumulation incubated for 3 hrs in presence of 28 mM glucose by gas chromatographic analysis
pIC50 is defined as minus the log10 of a concentration measured in mol/L.

Data request: Identify measured pIC50 corresponding to COc1ccc(S(=O)(=O)N2C(=O)NC(=O)C23CCCc2ccccc23)cc1 (configuration not stated)
Data returned: 5.20

Data request: Query pIC50 for COc1ccc(S(=O)(=O)N2C(=O)NC3(CCCc4ccccc43)C2=O)cc1 (configuration not stated)
Data returned: 4.71

Data request: Look up and state reported pIC50 for CC(C)c1ccc(S(=O)(=O)N2C(=O)NC(=O)C23CCCc2ccccc23)cc1 (configuration not stated)
Data returned: 6.14

Data request: Answer with reported pIC50 of O=C1NC2(CCCc3ccccc32)C(=O)N1S(=O)(=O)c1ccc(Br)cc1 (configuration not stated)
Data returned: 4.98

Data request: Give the reported pIC50 for this compound. O=C1NC(=O)C2(CCCc3ccccc32)N1S(=O)(=O)c1ccc(Br)cc1 (configuration not stated)
Data returned: 5.57

Data request: Provide one value: measured pIC50 of Cc1ccc(S(=O)(=O)N2C(=O)NC(=O)C23CCCc2ccccc23)cc1 (configuration not stated)
Data returned: 5.88

Data request: Specify measured pIC50 for Cc1ccc(S(=O)(=O)N2C(=O)NC3(CCCc4ccccc43)C2=O)cc1 (configuration not stated) .
Data returned: 5.76

Data request: Item O=C1NC(=O)C2(CCCc3ccccc32)N1S(=O)(=O)c1ccc(F)cc1 (configuration not stated) : provide pIC50
Data returned: 5.13

Data request: Provide pIC50 value for the following compound: O=C1NC(=O)C2(CCCc3ccccc32)N1S(=O)(=O)c1ccc(Cl)cc1 (configuration not stated)
Data returned: 5.36

Data request: // fetch pIC50 given entry CC(=O)c1ccc(S(=O)(=O)N2C(=O)NC3(CCCc4ccccc43)C2=O)cc1 (configuration not stated)
Data returned: 4.64

Data request: For the compound CC(=O)c1ccc(S(=O)(=O)N2C(=O)NC(=O)C23CCCc2ccccc23)cc1 (configuration not stated) , give its measured pIC50 value.
Data returned: 6.17

Data request: Tell me pIC50 reported for CC(C)c1ccc(S(=O)(=O)N2C(=O)NC3(CCCc4ccccc43)C2=O)cc1 (configuration not stated)
Data returned: 4.89
